src = the nanobody polyreactivity screen of Harvey et al. (2022)

# protocol_summary: yeast display, Sf9 membrane polyspecificity reagent, FACS + sequencing; frameworks hold sequencing errors
value_type: polyreactivity (PSR sort gate)

| input_sequence | polyreactivity (PSR sort gate) |
| --- | --- |
| QVQLVESGGGLVQAGGSLRLSCAASGSTFKAYAMGWYRQAPGKERELVAAITRRGTSTYYADSVKGRFTISRDNAKNTDYFQMNRLKPEDTAVFYCNAKYVSDRSSAVSFDYWVQGTQVTVSS | low polyreactivity |
| QVQLVESGGGLVQAGGSLRLSCAASGSTFSLYAMGWYRQAPGKERELVAAISKRGDDTYYADSVKGRFTISRDNAKNTVYLQMNSLKPEDTAVYYCAAEYAAYEYRYWWYDYWGQGTQVTVSS | high polyreactivity |
| QVQLVESGGGLVQAGGSLRLSCAASGIIFYHNAMGWYRKAPGKERELVATIRSSGDGTYYADSVKGRFTISRDNAKNTVYLQMNSLKPEDTAVYYCAAYWAHSYSYSVSRRYYYWGQGTQVTVSS | low polyreactivity |
| QVKLVESGGGLVQAGGSLRLSCAASGRIFGYNAMGWYRQAPGKERELVAAISRSGGTTYYADSVKGRFTISRDNSKNTVNLQMNRLKPEDTEVYYCAAYYRTRVPYDMDYWGQGTQVTVSS | high polyreactivity |
| QVQLVESGGGLVQAGGSLRLSCAASGSTFQYNAMGWYRQAPGKERELVAAISTGTSTYYADSVKGRFTISRDNAKNTVYLQMNSLKPEDTAVYYCAAEYWGDYTEYNYWGQGTQVTVSS | high polyreactivity |

Recorded polyreactivity (PSR sort gate) of QVQLVESGGGLVQAGGSLRLSCAASGLIFSGYAMGWYRQAPGKERELVAAISRGGGRTSYADSVKGRFTISRDNAKNTVYLQMNSLKPEDTAVYYCAKDPRYLRYDHWGQGTQVTVSS , please.
high polyreactivity

Recorded polyreactivity (PSR sort gate) of QVQLVESGGGLDQAGGSLRLSCAASGNTFHPYAMGWYRQAPGKERELVAAITKSGGSTYYADSVKGRFTISRDNAKKTVYLQMNSLKPEDTAVYYCNADDGVTEYDYWGQGTQVTVSS , please.
low polyreactivity

Recorded polyreactivity (PSR sort gate) of QVQLVESGGGLVQAGGSLRLSCAASGRIFGYYAMGWSRQAPGKERELVAAISSDGSTYYADSVKGRFTISRDNAENTVYLQMNSLKPEDTAVYYCAKEGRWDSYGYSAQPFYYWGQGTQVTVSS , please.
low polyreactivity
